# test.system: Murine iNOS (Mus musculus)
pKi: −log10 of the molar value.
parameter: pKi

molecule: O=C(O[C@@H]1Cc2c(O)cc(O)cc2O[C@@H]1c1cc(O)c(O)c(O)c1)c1cc(O)c(O)c(O)c1 [EGCG, Epigallocatechin-3-gallate]
test.system: Murine iNOS (Mus musculus)
parameter: pKi
experimental.result: 3.89

---

# test.system: Murine iNOS (Mus musculus)
# procedure.details: Citrulline assay for iNOS enzyme activity ([3H]arginine to [3H]citrulline)
parameter: EC50 (µM)

compound: O=C(O[C@@H]1Cc2c(O)cc(O)cc2O[C@@H]1c1cc(O)c(O)c(O)c1)c1cc(O)c(O)c(O)c1 [EGCG, Epigallocatechin-3-gallate]
parameter: EC50
experimental.result: 150

Data credit: patent US5922756A
